Biological target: CD28 (human) (UniProt P10747)
Experiment: flow cytometry, Jurkat cells (CD28)
Measured MFI at 33.3 nM by item
Reply with just the number (in MFI).

Binder	Data Value
CD80 H18Y/E35D/V68M/T79M/L85M IgV-Fc (Fc fusion) VIHVTKEVKEVATLSCGYNVSVEELAQTRIYWQKDKKMVLTMMSGDMNIWPEYKNRTIFDITNNLSIMILALRPSDEGMYECVVMKYEKDAFKREHLAEVTLSVKAD	1040

Would you kindly look at the next entry?
Asked: Need MFI at 33.3 nM, item variant CD80 IgV-Fc (inert) H18V/A26K/E35D/M47L/V68M/A71G (Fc fusion) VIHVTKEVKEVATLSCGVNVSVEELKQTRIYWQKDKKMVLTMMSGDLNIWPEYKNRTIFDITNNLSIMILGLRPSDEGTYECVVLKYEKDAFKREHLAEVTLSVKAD
Given back: 3640

These entries and their values trace back to patent US20220177587A1.
